# test system: human GS3 heparanase (Homo sapiens, UniProt Q9Y251)
# Sequence (Q9Y251 other isoform, or with tags, fused parts or gaps): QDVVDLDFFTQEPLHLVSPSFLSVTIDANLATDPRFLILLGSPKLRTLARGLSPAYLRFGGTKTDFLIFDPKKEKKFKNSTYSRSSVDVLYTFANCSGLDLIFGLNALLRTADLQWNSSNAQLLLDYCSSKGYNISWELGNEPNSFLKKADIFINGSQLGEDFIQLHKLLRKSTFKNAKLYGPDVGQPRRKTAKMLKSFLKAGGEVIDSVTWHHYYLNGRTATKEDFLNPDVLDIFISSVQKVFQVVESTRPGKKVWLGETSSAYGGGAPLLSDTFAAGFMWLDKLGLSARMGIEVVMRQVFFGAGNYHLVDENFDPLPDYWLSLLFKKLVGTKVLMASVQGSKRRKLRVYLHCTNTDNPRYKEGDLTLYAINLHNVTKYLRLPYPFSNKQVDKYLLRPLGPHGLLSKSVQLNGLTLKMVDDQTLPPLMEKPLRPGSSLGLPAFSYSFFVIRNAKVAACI
# assay summary: fondaparinux assay of heparanase enzymatic activity (WST-1 colorimetric)
# Format: biochemical
# condition label: Table S1; fixed concentration 25 µM (25 M [sic])
# % inhib @25 M ± SD listing for each entry below
Note: unit % is implicit; provide only the numeric part.

See these solved cases before continuing.
smiles | test system | parameter | display unit | observed
O=C(O)CCC(=O)Nc1ccc(Oc2ccc(S(=O)(=O)c3ccc(Oc4ccc(NC(=O)CCC(=O)O)cc4)cc3)cc2)cc1 | human GS3 heparanase (Homo sapiens, UniProt Q9Y251) | % inhib @25 M ± SD | % | 51
O=C(O)c1ccc(Oc2ccc3c(c2)C(=O)N(c2ccc(S(=O)(=O)c4ccc(N5C(=O)c6ccc(Oc7ccc(C(=O)O)cc7)cc6C5=O)cc4)cc2)C3=O)cc1 | human GS3 heparanase (Homo sapiens, UniProt Q9Y251) | % inhib @25 M ± SD | % | 70

The compound O=C(Nc1ccc(Sc2ccc(Oc3ccc(Sc4ccc(NC(=O)c5cccc(F)c5)cc4)cc3)cc2)cc1)c1cccc(F)c1 showed % inhib @25 M ± SD equal to 66

* * *

# test system: UniProt Q9Y251
# assay summary: fondaparinux assay of heparanase enzymatic activity (WST-1 colorimetric)
# Assay type: biochemical
# condition label: Table S1; fixed concentration 2.5 µM (2.5 M [sic])
% inhib @2.5 M ± SD for assorted compounds

Worked examples, 10 compounds total:
compound | % inhib @2.5 M ± SD
O=C(Nc1ccccc1Oc1ccc(C(=O)O)c(C(=O)O)c1)c1ccc(Oc2ccc(C(=O)Nc3ccccc3Oc3ccc(C(=O)O)c(C(=O)O)c3)cc2)cc1 [Compound 22] | 21 ± 1%
O=C(CSc1nc2ccccc2[nH]1)Nc1ccc(-c2nc3cc(NC(=O)CSc4nc5ccccc5[nH]4)ccc3o2)cc1 [Compound 33] | 36 ± 5%
O=C(Nc1ccc(Sc2ccc(Oc3ccc(Sc4ccc(NC(=O)c5cccc(F)c5)cc4)cc3)cc2)cc1)c1cccc(F)c1 [Compound 47] | 30 ± 3%
O=C(Nc1c[nH]c(=O)[nH]c1=O)c1ccc2c(c1)C(=O)N(c1ccc(Oc3ccc(N4C(=O)c5ccc(C(=O)Nc6c[nH]c(=O)[nH]c6=O)cc5C4=O)cc3)cc1)C2=O [Compound 45] | 41 ± 3%
O=C(O)c1cccc(NC(=O)c2ccc(S(=O)(=O)c3ccc(C(=O)Nc4cccc(C(=O)O)c4)cc3)cc2)c1 [Compound 54] | 22 ± 7%
O=C(O)CCC(=O)Nc1ccc(Oc2ccc(S(=O)(=O)c3ccc(Oc4ccc(NC(=O)CCC(=O)O)cc4)cc3)cc2)cc1 [Compound 56] | 20 ± 5%
O=C(Nc1cccc(C(=O)Nc2cc(C(=O)Nc3ccc(S(=O)(=O)O)c4cc(S(=O)(=O)O)cc(S(=O)(=O)O)c34)ccc2F)c1)Nc1cccc(C(=O)Nc2cc(C(=O)Nc3ccc(S(=O)(=O)O)c4cc(S(=O)(=O)O)cc(S(=O)(=O)O)c34)ccc2F)c1 [Compound 10] | 39 ± 3%
O=C(O)c1ccc(NC(=O)c2ccc(S(=O)(=O)c3ccc(C(=O)Nc4ccc(C(=O)O)cc4)cc3)cc2)cc1 [Compound 55] | 30 ± 4%
O=C(Nc1nc(-c2ccc(F)cc2)cs1)c1ccc(Oc2ccc(C(=O)Nc3nc(-c4ccc(F)cc4)cs3)cc2)cc1 [Compound 43] | 44 ± 1%
O=C(Nc1ccc(Oc2ccc(NC(=O)c3ccc4c(c3)C(=O)N(c3nccs3)C4=O)cc2)cc1)c1ccc2c(c1)C(=O)N(c1nccs1)C2=O [Compound 44] | 62 ± 2%

Please turn your attention to the following entry.
In plain terms, O=C(Nc1nc(-c2ccc3ccccc3c2)cs1)c1ccc(Oc2ccc(C(=O)Nc3nc(-c4ccc5ccccc5c4)cs3)cc2)cc1 [Compound 41] has a documented % inhib @2.5 M ± SD of 54 ± 6%
